# Tested on: Serratia marcescens AS-1
# experiment-description: Quorum sensing inhibition assay (disk, pigment production)
# Format: cell-based
# measurement-conditions: AS1, read-out: Quorum Sensing Inhibition (mm) ± SD
measured-quantity: zone of inhibition at 10000 µM

Exam item: May I ask what zone of inhibition at 10000 µM has been recorded for Cc1c(O)cc2oc3ccccc3c(=O)c2c1O ?
Marked response: 0 mm

Exam item: May I ask what zone of inhibition at 10000 µM has been recorded for COc1cccc2oc3ccccc3c(=O)c12 ?
Marked response: 0 mm

Exam item: May I ask what zone of inhibition at 10000 µM has been recorded for COc1cc(CN[C@H](C)c2ccc(Cl)cc2)c2c(=O)c3ccccc3oc2c1OC ?
Marked response: 0 mm

Exam item: May I ask what zone of inhibition at 10000 µM has been recorded for CC(CN1c2ccccc2Sc2ccccc21)N(C)C (centres unmarked) [PMZ, promethazine, reference compound] ?
Marked response: 18 mm

Exam item: May I ask what zone of inhibition at 10000 µM has been recorded for COc1ccc2c(=O)c3c(C=O)cc(OC)c(OC)c3oc2c1 ?
Marked response: 0 mm

Exam item: May I ask what zone of inhibition at 10000 µM has been recorded for COc1cc(CNCc2ccc(F)cc2)c2c(=O)c3ccccc3oc2c1OC ?
Marked response: 0 mm

Exam item: May I ask what zone of inhibition at 10000 µM has been recorded for O=c1c2cc(O)ccc2oc2cccc(O)c12 ?
Marked response: 0 mm

Exam item: May I ask what zone of inhibition at 10000 µM has been recorded for COc1cc(CBr)c2c(=O)c3ccccc3oc2c1OC ?
Marked response: 0 mm

* * *

Give measured IC50 at 24 h for each item. Keep answers brief.
# experiment-description: Cytotoxicity assay (MTT)
# Type: cell-based, mouse
# measurement-conditions: mouse, NIH/3T3 mouse fibroblast cells, 24 h, MTT, read-out: Cytotoxicity IC50 (µM) ± SD

Exam item: May I ask what IC50 at 24 h has been recorded for O=c1c2cc(O)ccc2oc2cccc(O)c12 ?
Marked response: > 100 µM

Exam item: May I ask what IC50 at 24 h has been recorded for COc1cc(CN[C@H](C)c2ccc(Cl)cc2)c2c(=O)c3ccccc3oc2c1OC ?
Marked response: 35.1 µM

Exam item: May I ask what IC50 at 24 h has been recorded for COc1cccc2c1C(=O)c1c(O)c3c(c(O)c1C2=O)C[C@@](O)(C(=O)CO)C[C@@H]3O[C@H]1C[C@H](N)[C@H](O)[C@H](C)O1 [Doxorubicin, reference compound] ?
Marked response: 12.1 µM

Exam item: May I ask what IC50 at 24 h has been recorded for COc1ccc2c(=O)c3c(C=O)cc(OC)c(OC)c3oc2c1 ?
Marked response: 26.9 µM

Exam item: May I ask what IC50 at 24 h has been recorded for COc1cc(CBr)c2c(=O)c3ccccc3oc2c1OC ?
Marked response: 54.6 µM

Exam item: May I ask what IC50 at 24 h has been recorded for COc1cc(CNCc2ccc(F)cc2)c2c(=O)c3ccccc3oc2c1OC ?
Marked response: > 100 µM
